Reported IC50 (µg/mL), pseudovirus neutralization values follow for various binders
- testedTarget: HIV-1 93UG077 Env (pseudovirus) (HIV-1 isolate 93UG077)
- assaySummary: cell-based or functional assay

Input line: Retrieve IC50 (µg/mL), pseudovirus neutralization measured for 1456_P20 (PG20) (antibody, human IgG1, kappa, V domains shown) VH: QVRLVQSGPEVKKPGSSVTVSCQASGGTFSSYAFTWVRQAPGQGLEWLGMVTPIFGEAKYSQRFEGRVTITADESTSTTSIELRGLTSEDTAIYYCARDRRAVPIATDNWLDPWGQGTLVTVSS VL: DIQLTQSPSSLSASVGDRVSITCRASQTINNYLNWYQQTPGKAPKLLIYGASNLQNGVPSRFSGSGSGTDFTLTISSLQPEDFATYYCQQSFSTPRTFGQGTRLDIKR and print it.
Output line: > 50 µg/mL

Input line: Tell me measured IC50 (µg/mL), pseudovirus neutralization for 1495_C14 (PGC14) (antibody, human IgG1, lambda, V domains shown) VH: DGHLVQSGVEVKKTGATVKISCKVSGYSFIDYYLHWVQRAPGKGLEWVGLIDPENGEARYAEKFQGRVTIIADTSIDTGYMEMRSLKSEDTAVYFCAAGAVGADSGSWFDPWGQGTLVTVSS VL: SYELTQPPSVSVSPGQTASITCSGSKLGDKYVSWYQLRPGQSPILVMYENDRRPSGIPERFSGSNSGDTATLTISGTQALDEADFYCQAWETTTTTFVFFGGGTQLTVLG please.
Output line: > 50 µg/mL

Input line: Note IC50 (µg/mL), pseudovirus neutralization for the binder shown: 1496_C09 (PG9) (TCN-109) (antibody, V domains shown) VH: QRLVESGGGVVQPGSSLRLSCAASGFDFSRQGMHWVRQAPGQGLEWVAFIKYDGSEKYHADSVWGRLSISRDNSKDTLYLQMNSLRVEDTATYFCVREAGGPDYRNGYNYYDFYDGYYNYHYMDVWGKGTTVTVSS VL: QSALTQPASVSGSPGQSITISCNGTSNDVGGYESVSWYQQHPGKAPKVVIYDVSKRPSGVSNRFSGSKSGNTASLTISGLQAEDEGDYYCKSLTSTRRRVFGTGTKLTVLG
Output line: > 50 µg/mL

Input line: Identify the reported IC50 (µg/mL), pseudovirus neutralization for the following entry. 1443_C16 (PG16) (TCN-116) (antibody, V domains shown) VH: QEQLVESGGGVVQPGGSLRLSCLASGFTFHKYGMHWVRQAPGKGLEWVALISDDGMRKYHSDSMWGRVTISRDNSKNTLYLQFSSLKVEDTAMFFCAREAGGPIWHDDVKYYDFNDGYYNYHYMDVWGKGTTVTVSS VL: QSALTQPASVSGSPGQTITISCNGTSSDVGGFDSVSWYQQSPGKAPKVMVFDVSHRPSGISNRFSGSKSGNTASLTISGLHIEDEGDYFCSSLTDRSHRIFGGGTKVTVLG
Output line: > 50 µg/mL

Input line: Answer with the recorded IC50 (µg/mL), pseudovirus neutralization of 1460_G14 (PGG14) (antibody, human IgG1, kappa, V domains shown) VH: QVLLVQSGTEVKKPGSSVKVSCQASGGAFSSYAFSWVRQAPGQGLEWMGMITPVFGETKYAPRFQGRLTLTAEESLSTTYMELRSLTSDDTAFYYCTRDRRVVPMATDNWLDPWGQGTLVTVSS VL: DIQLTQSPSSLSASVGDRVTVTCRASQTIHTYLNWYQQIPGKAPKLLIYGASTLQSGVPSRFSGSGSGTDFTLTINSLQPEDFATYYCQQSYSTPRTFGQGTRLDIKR only.
Output line: > 50 µg/mL

Just for reference, patent US20250320281A1 is where these values come from.
